- target system: hOT7T175 (Homo sapiens, UniProt Q969F8, L364H)
- Sequence (Q969F8 whole entry L364H): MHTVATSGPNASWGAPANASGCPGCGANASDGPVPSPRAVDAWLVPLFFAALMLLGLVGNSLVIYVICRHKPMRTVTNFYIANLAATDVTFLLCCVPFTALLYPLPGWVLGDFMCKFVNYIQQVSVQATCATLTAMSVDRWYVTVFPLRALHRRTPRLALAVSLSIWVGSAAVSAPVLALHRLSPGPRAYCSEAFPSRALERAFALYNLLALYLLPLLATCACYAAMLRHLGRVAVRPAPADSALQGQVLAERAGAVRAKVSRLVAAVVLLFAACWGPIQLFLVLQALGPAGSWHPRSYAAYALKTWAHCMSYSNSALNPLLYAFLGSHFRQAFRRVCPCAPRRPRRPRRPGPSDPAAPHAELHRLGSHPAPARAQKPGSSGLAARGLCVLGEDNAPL
- method notes: hOT7T175 receptor binding activity: binding inhibition of Cy-5-labeled metastin (40-54) on hOT7T175-expressed CHO cells
- Parameters: expressed in transfected cells; host or cells: CHO cells
Square brackets hold non-standard residues; d marks the D form. Peptide text beside a SMILES is read from it. Arg(Me) = CNC(=N)NCCC[C@H](N)C(=O)O; Cha = N[C@@H](CC1CCCCC1)C(=O)O; azaGly = NNC(=O)O
Measured IC50 values are reported for all entries that follow.

| compound | IC50 / nM |
| --- | --- |
| CNC(=N)NCCC[C@H](NC(=O)[C@H](CC(C)C)NC(=O)CNC(=O)[C@H](CC1CCCCC1)NC(=O)[C@H](CO)NC(=O)[C@H](CC(N)=O)NC(=O)[C@H](CC1CCCCC1)NC(=O)[C@H](CC(N)=O)NC(=O)[C@H](N)Cc1ccc(O)cc1)C(=O)N[C@@H](Cc1c[nH]c2ccccc12)C(N)=O [Compound No. 182] (H-[dY]N[Cha]NS[Cha]GL[Arg(Me)]W-NH2) | 98 |
| CC[C@H](C)[C@H](NC(=O)[C@H](N)Cc1ccc(O)cc1)C(=O)N[C@@H](CC(N)=O)C(=O)N[C@@H](CO)C(=O)N[C@@H](Cc1ccccc1)C(=O)NNC(=O)N[C@@H](CC(C)C)C(=O)N[C@@H](CCCNC(=N)NC)C(=O)N[C@@H](Cc1ccccc1)C(N)=O [Compound No. 240] (H-[dY]INSF[azaGly]L[Arg(Me)]F-NH2) | 17 |
| CC(C)C[C@H](NC(=O)CNC(=O)[C@H](Cc1ccccc1)NC(=O)[C@H](CO)NC(=O)[C@H](CC(N)=O)NC(=O)[C@H](Cc1c[nH]c2ccccc12)NC(=O)[C@H](CC(N)=O)NC(=O)[C@@H](N)CC(=O)O)C(=O)N[C@@H](CCCNC(=N)N)C(=O)N[C@@H](Cc1ccccc1)C(N)=O [Compound No. 75] (H-DNWNSFGLRF-NH2) | 880 |
